Each entry below lists one item and its recorded protein stability index value.
Tested on: Saccharomyces cerevisiae
Assay Method Text: protein stability index of tFT-peptide fusion in deletion strain of DOA10 (PSI (0-1 scale)); higher = more stable (slower turnover)
A bare number is all that is needed in reply.

These recorded examples may help you get a feel for the data.
Look up protein stability index: RSLRVLLPYYFR 0.678

Look up protein stability index: AITLPMCPLLLS 0.443

Look up protein stability index: RSLRVLLPLYFH 0.583

Look up protein stability index: CLVSLLILLFFR 0.408

Look up protein stability index: RSLRVLLPLYNR 0.666

Look up protein stability index: GLYMCSVGCWFRR 0.646

Look up protein stability index: GLYMCSVGNWFR 0.683

Look up protein stability index: RSLRVLLPLYFY 0.435

Look up protein stability index: CLVSLPMLLFFR 0.626

We next turn to a different sequence, shown below.
Look up protein stability index: AITLPMCPLLLT 0.491

----------
Tested on: Saccharomyces cerevisiae
Assay Method Text: protein stability index of tFT-peptide fusion (C-terminal peptide) (PSI (0-1 scale)); higher = more stable (slower turnover)
Test Settings: genetic background: wild type; temperature: 37 C
Each entry below lists one item and its recorded protein stability index value.
A bare number is all that is needed in reply.

Look up protein stability index: GGKTLSIFLRIS 0.295

Look up protein stability index: GYRYMWLWRLSA 0.235

Look up protein stability index: DSPRGRCVRLLV 0.599

Look up protein stability index: LFYVCPFVCFLC 0.438

Look up protein stability index: IVIFQTAYVVRI 0.234

We next turn to a different sequence, shown below.
Look up protein stability index: LLRLPLLALLFV 0.324

----------
System: Saccharomyces cerevisiae
Assay Method Text: protein stability index of tFT-peptide fusion (C-terminal peptide) (PSI (0-1 scale)); higher = more stable (slower turnover)
Test Settings: genetic background: das1 deletion; temperature: 30 C
Decision: protein stability index compared against 0.3; not below it gives label 1, below it gives label 0.

For this sequence, is measured protein stability index 0.3 or higher? LSLVIFIFLYCR label 0

For this sequence, is measured protein stability index 0.3 or higher? GGLWRRLCLGVG label 1

For this sequence, is measured protein stability index 0.3 or higher? LLPLLFFFLCLP label 1

For this sequence, is measured protein stability index 0.3 or higher? IYNIIFKYRTIT label 1

For this sequence, is measured protein stability index 0.3 or higher? GSMGGVGVLGGD label 1

For this sequence, is measured protein stability index 0.3 or higher? CCFVGLRYVLWV label 1

For this sequence, is measured protein stability index 0.3 or higher? DWCACFFILLLA label 0

For this sequence, is measured protein stability index 0.3 or higher? SGWGCRMVVCAG label 0

For this sequence, is measured protein stability index 0.3 or higher? SLCVVIFFSSIT label 0

For this sequence, is measured protein stability index 0.3 or higher? PRSFFYIQFVFA label 0

Continuing:
For this sequence, is measured protein stability index 0.3 or higher? FSPSHMLRIFCY label 0

For this sequence, is measured protein stability index 0.3 or higher? AGGLLIGSVGVG label 1

----------
Tested on: Saccharomyces cerevisiae
Assay Method Text: protein stability index of tFT-peptide fusion (C-terminal peptide) (PSI (0-1 scale)); higher = more stable (slower turnover)
Test Settings: genetic background: wild type; temperature: 30 C
Parameter: protein stability index
A bare number is all that is needed in reply.

Look up protein stability index: GRSGWAWFTCRC 0.67

Look up protein stability index: PPRLHAPPPSPP 0.716

Look up protein stability index: GVPVVCGPPPFL 0.748

Continuing:
Look up protein stability index: QFERSVFLANAL 0.679

Look up protein stability index: PRPPPLPPQTSS 0.73

----------
Tested on: Saccharomyces cerevisiae
Assay Method Text: protein stability index of tFT-peptide fusion (C-terminal peptide) (PSI (0-1 scale)); higher = more stable (slower turnover)
Test Settings: genetic background: wild type; temperature: 30 C
Decision: protein stability index compared against 0.7; not below it gives label 1, below it gives label 0.

For this sequence, is measured protein stability index 0.7 or higher? FLMDSQGPWICR label 1

For this sequence, is measured protein stability index 0.7 or higher? DKGWRTRKVKDE label 0

For this sequence, is measured protein stability index 0.7 or higher? LRLFCVLARSVV label 0

For this sequence, is measured protein stability index 0.7 or higher? VKPVLEILKTKT label 0

For this sequence, is measured protein stability index 0.7 or higher? PLNPSPSCPPTL label 0

Continuing:
For this sequence, is measured protein stability index 0.7 or higher? ASVWSLPSIVLT label 0

For this sequence, is measured protein stability index 0.7 or higher? IFGMSIMLNRIT label 0

For this sequence, is measured protein stability index 0.7 or higher? RPHPLHIPRRLA label 0

For this sequence, is measured protein stability index 0.7 or higher? GGGAGRGSRVWG label 1

For this sequence, is measured protein stability index 0.7 or higher? IGGGPLWLVNNM label 0

For this sequence, is measured protein stability index 0.7 or higher? SRCYKETGKVRE label 1

For this sequence, is measured protein stability index 0.7 or higher? SFSLPPSSSPPT label 1

For this sequence, is measured protein stability index 0.7 or higher? RRWSPPGLGCIE label 1

For this sequence, is measured protein stability index 0.7 or higher? CLCLTCMLDFYL label 0

For this sequence, is measured protein stability index 0.7 or higher? ACEFRFFYVFRC label 0

For this sequence, is measured protein stability index 0.7 or higher? APPPLCCPPLAP label 1

For this sequence, is measured protein stability index 0.7 or higher? APRRPPQHPTLL label 0

For this sequence, is measured protein stability index 0.7 or higher? LPRPPPLAGPPL label 1

For this sequence, is measured protein stability index 0.7 or higher? KQRGSKVIIKVD label 0

For this sequence, is measured protein stability index 0.7 or higher? LFPRSVPIAINL label 0

For this sequence, is measured protein stability index 0.7 or higher? PPPPAPYPNYYS label 0

----------
Each entry below lists one item and its recorded protein stability index value.
System: Saccharomyces cerevisiae
Assay Method Text: protein stability index of tFT-peptide fusion (C-terminal peptide) (PSI (0-1 scale)); higher = more stable (slower turnover)
Test Settings: genetic background: wild type; temperature: 30 C

Look up protein stability index: GVSAGLRGGGGA 0.651

Look up protein stability index: PSLPPLPPFAAL 0.749

Look up protein stability index: PPTPPTARPIVL 0.677

Continuing:
Look up protein stability index: QPPLPTRLNHRQ 0.651

Look up protein stability index: LLSVSFVGWPLT 0.634

Look up protein stability index: IGGYNRTFELMG 0.678

----------
Tested on: Saccharomyces cerevisiae
Assay Method Text: protein stability index of tFT-peptide fusion (C-terminal peptide) (PSI (0-1 scale)); higher = more stable (slower turnover)
Test Settings: genetic background: wild type; temperature: 30 C
Each entry below lists one item and its recorded protein stability index value.
A bare number is all that is needed in reply.

These recorded examples may help you get a feel for the data.
Look up protein stability index: LACWAGGLGWGG 0.772

Look up protein stability index: LLAPPLPAVPSF 0.731

Look up protein stability index: KSKLSSRTKLTH 0.64

Look up protein stability index: RDSERTSGAMLS 0.689

Look up protein stability index: SSLPLPRVPPPP 0.717

We next turn to a different sequence, shown below.
Look up protein stability index: PASQPPTPPPRS 0.675

----------
Each entry below lists one item and its recorded protein stability index value.
Test system: Saccharomyces cerevisiae
Assay Method Text: protein stability index of tFT-peptide fusion (C-terminal peptide) (PSI (0-1 scale)); higher = more stable (slower turnover)
Test Settings: genetic background: wild type; temperature: 30 C
A bare number is all that is needed in reply.

Look up protein stability index: ASNSSGHTTRAS 0.673

Look up protein stability index: GQAPRARKTSTD 0.678

Look up protein stability index: SPTNNTSTQSQT 0.686

Look up protein stability index: LVGQVKYMIKEQ 0.684

Look up protein stability index: AVPLFRSVSRTS 0.667

Continuing:
Look up protein stability index: SSRRQSSRPPHS 0.648

Look up protein stability index: CCVVFMGLGGGR 0.673

----------
Test system: Saccharomyces cerevisiae
Assay Method Text: protein stability index of tFT-peptide fusion (C-terminal peptide) (PSI (0-1 scale)); higher = more stable (slower turnover)
Test Settings: genetic background: wild type; temperature: 30 C
Parameter: protein stability index
A bare number is all that is needed in reply.

Look up protein stability index: GAVWGRLTGSAH 0.647
